Reference source: ChEMBL document CHEMBL1140109

Give IC50 for every item shown.
TEST_DETAILS: Inhibition of Escherichia coli BL21(DE3) methionine aminopeptidase in presence of Mn(II) metal ions
Numbers only, in µM.

[
  {
    "SMILES_NOTATION": "Oc1ccc(-c2cccs2)cc1O",
    "READING_UNIT": "µM",
    "IC50": 15.7
  },
  {
    "SMILES_NOTATION": "Cc1sc(C)c(-c2ccc(O)c(O)c2)c1Br",
    "READING_UNIT": "µM",
    "IC50": 2.1
  }
]

Hey, can you go through the list below and give me IC50 for every item?
1. N#Cc1ccc(-c2ccc(O)c(O)c2)s1
2. Cc1nc(C(=O)NC2CC2)c(-c2ccc(O)c(O)c2)s1
3. Oc1ccc(-c2ccsc2)cc1O

Out:
1. 30.4
2. 100
3. 27.5
